The measurements presented in this section are drawn from ChEMBL document CHEMBL1201862.

- System: CAKI-1
- METHOD: NCI tumour cell line growth inhibition, 48 h
The source made the active and inactive calls. Rule as the data show it: active = GI50 up to about 1.1 µM and inactive = higher.
OUTCOME_MEASURE: GI50

Prompt line: Tell me reported GI50 for CC1(C)OC2C(=O)C=C(COCc3ccccc3)C2O1 (stereo not given) , tested with CAKI-1.
Response line: 35.3 µM (inactive)

Prompt line: Tell me reported GI50 for CC(C)(C)c1cc(O)ccc1O [E319] , tested with CAKI-1.
Response line: > 57.8 µM (inactive)

Prompt line: Tell me reported GI50 for CC(C)(C)[Si](C)(C)OCC1OC(n2cnc3c(N)ncnc32)CC1O (stereo not given) , tested with CAKI-1.
Response line: 86.9 µM (inactive)
